Cited source for all entries: patent US5334456A

condition info: Table XVI; max. = 10
# condition met = Eye Irritation below 9 (exclusive); condition not met = Eye Irritation at/above 9

Record C=CC(=O)OCCCCCCOC(=O)C=C [1,6-hexanediol diacrylate] : is its Eye Irritation strictly below 9?
condition met

Please do the same for C=CC(=O)OCC(CO)(COC(=O)C=C)COC(=O)C=C [Pentaerythritol triacrylate] as well.
condition not met

And the next one, C=CC(=O)OCC(C)(C)COC(=O)C=C [Neopentylglycol diacrylate] ?
condition met

Try this compound next: C=CC(=O)OCCOc1ccccc1 [2-phenoxyethyl acrylate]
condition met

###

condition info: Table XVI; max. = 8
property: Skin Irritation
The answer should be written as a number, with no unit following it.

Some entries whose results are on file:
Please look up its Skin Irritation: C=CC(=O)OCCO [2-hydroxyethyl acrylate]
6

Try this molecule next: C=CC(=O)OCCCCCCOC(=O)C=C [1,6-hexanediol diacrylate]
3

Then C=CC(=O)OCC(CO)(COC(=O)C=C)COC(=O)C=C [Pentaerythritol triacrylate] ?
2

Also C=CC(=O)OCCOCCOC(=O)C=C [Diethyleneglycol diacrylate] ?
5

Can you handle C=CC(=O)OCCOc1ccccc1 [2-phenoxyethyl acrylate] next?
3

Kindly consider the entry below.
What measured Skin Irritation goes with C=CC(=O)OCC(C)(C)COC(=O)C=C [Neopentylglycol diacrylate] ?
5

###

protocol notes: Inhalation Kill (animals)
Type: in vivo
condition info: Table XVI
property: Inhalation Kill

// lookup Inhalation Kill for C=CC(=O)OCCOCCOC(=O)C=C [Diethyleneglycol diacrylate]
0 of 6

Try this compound next: C=CC(=O)OCCO [2-hydroxyethyl acrylate]
1 of 6

# repeat for C=CC(=O)OCC(CO)(COC(=O)C=C)COC(=O)C=C [Pentaerythritol triacrylate]
0 of 6

Try this compound too: C=CC(=O)OCCOc1ccccc1 [2-phenoxyethyl acrylate]
0 of 6

Okay, and C=CC(=O)OCC(C)(C)COC(=O)C=C [Neopentylglycol diacrylate] ?
1 of 6

Try this compound too: C=CC(=O)OCCCCCCOC(=O)C=C [1,6-hexanediol diacrylate]
0 of 6

###

condition info: Table XVI; max. = 10
Eye Irritation for assorted compounds
Simply state the number, no unit and no words.

What value of measured Eye Irritation is listed for C=CC(=O)OCCO [2-hydroxyethyl acrylate] ?
9

Then there is this compound:
Look up Eye Irritation for this compound: C=CC(=O)OCCOCCOC(=O)C=C [Diethyleneglycol diacrylate]
9
